Source: the supplement of paper PMC8882468

System: HCI-001 (organoid from a triple-negative breast cancer xenograft)
PROTOCOL DETAILS: CTG-3D luminescence at 96 h relative to day-0 seeding control (ratio to day 0); higher = more growth / less cytotoxicity; PDxO 3D drug screen, 96 h, CTG-3D normalised to day-0 seeding control.
TEST PARAMETERS: 0.00025 µM; days in culture: 269
Each entry below carries its recorded CTG-3D luminescence at 96 h.
VALUE TYPE: CTG-3D luminescence at 96 h

COMPOUND	ASSAY SYSTEM	VALUE TYPE	RECORDED RESULT
CC[C@H](NC(=O)[C@H](C)NC)C(=O)N1C[C@@H](O)C[C@H]1Cc1c(-c2[nH]c3cc(F)ccc3c2C[C@@H]2C[C@H](O)CN2C(=O)[C@H](CC)NC(=O)[C@H](C)NC)[nH]c2cc(F)ccc12	HCI-001	CTG-3D luminescence at 96 h	1.67
CC(C)n1nc(-c2ccc3oc(N)nc3c2)c2c(N)ncnc21	HCI-001	CTG-3D luminescence at 96 h	1.79
O=C(O)C1(C(=O)O)CCC1.[NH2-].[NH2-].[Pt+2]	HCI-001	CTG-3D luminescence at 96 h	1.61
CC1(C)CCC(c2ccc(Cl)cc2)=C(CN2CCN(c3ccc(C(=O)NS(=O)(=O)c4ccc(N[C@H](CCN5CCOCC5)CSc5ccccc5)c(S(=O)(=O)C(F)(F)F)c4)cc3)CC2)C1	HCI-001	CTG-3D luminescence at 96 h	1.73
CN(Cc1cnc2nc(N)nc(N)c2n1)c1ccc(C(=O)N[C@@H](CCC(=O)O)C(=O)O)cc1 [methotrexate]	HCI-001	CTG-3D luminescence at 96 h	1.46
C[C@@H]1COCCN1c1cc(C2([S@](C)(=N)=O)CC2)nc(-c2cc[nH]c3nccc2-3)n1	HCI-001	CTG-3D luminescence at 96 h	1.65

###

System: HCI-001
PROTOCOL DETAILS: CTG-3D luminescence at 96 h relative to day-0 seeding control (ratio to day 0); higher = more growth / less cytotoxicity; PDxO 3D drug screen, 96 h, CTG-3D normalised to day-0 seeding control.
TEST PARAMETERS: 0.005 µM; days in culture: 260

COMPOUND	CTG-3D luminescence at 96 h
CCN(c1cc(C#CCN2CCOCC2)cc(C(=O)NCc2c(C)cc(C)[nH]c2=O)c1C)[C@H]1CC[C@H](N(C)CCOC)CC1	2.11
C[C@@H]1COCCN1c1cc(C2([S@](C)(=N)=O)CC2)nc(-c2cc[nH]c3nccc2-3)n1	1.81
C[C@]12CC[C@@H]3c4ccc(O)cc4C[C@@H](CCCCCCCCC[S+]([O-])CCCC(F)(F)C(F)(F)F)[C@H]3[C@@H]1CC[C@@H]2O (some centres undefined)	1.9
O=C(O)C1(C(=O)O)CCC1.[NH2-].[NH2-].[Pt+2]	2.01
NC(=O)c1cccc2cn(-c3ccc([C@@H]4CCCNC4)cc3)nc12	2.11
CS(=O)(=O)c1ccc(C(=O)Nc2ccc(Cl)c(-c3ccccn3)c2)c(Cl)c1	2.27
COc1cccc2c1C(=O)c1c(O)c3c(c(O)c1C2=O)C[C@@](O)(C(=O)CO)C[C@@H]3O[C@H]1C[C@H](N)[C@H](O)[C@H](C)O1	2.06
CCN1CCN(Cc2ccc(Nc3ncc(F)c(-c4cc(F)c5nc(C)n(C(C)C)c5c4)n3)nc2)CC1	1.6
Cc1nc(-c2cn3c(n2)-c2ccc(-c4cnn(C(C)(C)C(N)=O)c4)cc2OCC3)n(C(C)C)n1	1.04

###

Test system: MDA-MB-231
PROTOCOL DETAILS: CTG-3D luminescence at 96 h relative to day-0 seeding control (ratio to day 0); higher = more growth / less cytotoxicity; PDxO 3D drug screen, 96 h, CTG-3D normalised to day-0 seeding control.
TEST PARAMETERS: 0.00025 µM
Each entry below carries its recorded CTG-3D luminescence at 96 h.

COMPOUND	CTG-3D luminescence at 96 h
CC(=O)O[C@H]1C(=O)[C@@]2(C)[C@H]([C@H](OC(=O)c3ccccc3)[C@]3(O)C[C@H](OC(=O)[C@H](O)[C@@H](NC(=O)c4ccccc4)c4ccccc4)C(C)=C1C3(C)C)[C@]1(OC(C)=O)CO[C@@H]1C[C@@H]2O	3.45
C[C@]12CC[C@@H]3c4ccc(O)cc4C[C@@H](CCCCCCCCC[S+]([O-])CCCC(F)(F)C(F)(F)F)[C@H]3[C@@H]1CC[C@@H]2O (stereo partly specified)	4.53
CC1(C)CCC(c2ccc(Cl)cc2)=C(CN2CCN(c3ccc(C(=O)NS(=O)(=O)c4ccc(N[C@H](CCN5CCOCC5)CSc5ccccc5)c(S(=O)(=O)C(F)(F)F)c4)cc3)CC2)C1	4.44
CC(C)(C(=O)NCC(F)(F)C(F)(F)F)C(=O)N[C@@H]1C(=O)Nc2ccccc2-c2ccccc21	4.53
CS(=O)(=O)c1ccc(C(=O)Nc2ccc(Cl)c(-c3ccccn3)c2)c(Cl)c1	4.44
O=C(c1ccc(F)c(F)c1Nc1ccc(I)cc1F)N1CC(O)([C@@H]2CCCCN2)C1	4.46

###

System: HCI-025 (organoid from a breast cancer xenograft)
PROTOCOL DETAILS: CTG-3D luminescence at 96 h relative to day-0 seeding control (ratio to day 0); higher = more growth / less cytotoxicity; PDxO 3D drug screen (set 2), 96 h, CTG-3D normalised to day-0 seeding control.
TEST PARAMETERS: 0.1 µM; days in culture: 175
Each entry below carries its recorded CTG-3D luminescence at 96 h.

COMPOUND	CTG-3D luminescence at 96 h
CS(=O)(=O)CCNCc1ccc(-c2ccc3ncnc(Nc4ccc(OCc5cccc(F)c5)c(Cl)c4)c3c2)o1	2.22
COc1cccc2c1C(=O)c1c(O)c3c(c(O)c1C2=O)C[C@@](O)(C(=O)CO)C[C@@H]3O[C@H]1C[C@H](N)[C@@H](O)[C@H](C)O1 [epirubicin]	0.846
Cc1c(CN2CCN(C(=O)[C@H](C)O)CC2)sc2c(N3CCOCC3)nc(-c3cnc(N)nc3)nc12	1.89
CC(=O)O[C@@]12CO[C@@H]1C[C@H](O)[C@@]1(C)C(=O)[C@H](O)C3=C(C)[C@@H](OC(=O)[C@H](O)[C@@H](NC(=O)OC(C)(C)C)c4ccccc4)C[C@@](O)([C@@H](OC(=O)c4ccccc4)[C@H]21)C3(C)C	0.494

###

Test system: HCI-019 (organoid from a triple-negative breast cancer xenograft)
PROTOCOL DETAILS: CTG-3D luminescence at 96 h relative to day-0 seeding control (ratio to day 0); higher = more growth / less cytotoxicity; PDxO 3D drug screen (set 2), 96 h, CTG-3D normalised to day-0 seeding control.
TEST PARAMETERS: 12.5 pM; days in culture: 194
Each entry below carries its recorded CTG-3D luminescence at 96 h.

MOL SMILES	CTG-3D luminescence at 96 h
Nc1cc(C(F)(F)F)c(-c2cc(N3CCOCC3)nc(N3CCOCC3)n2)cn1	1.92
CS(=O)(=O)CCNCc1ccc(-c2ccc3ncnc(Nc4ccc(OCc5cccc(F)c5)c(Cl)c4)c3c2)o1	1.47
CC(=O)c1c(C)c2cnc(Nc3ccc(N4CCNCC4)cn3)nc2n(C2CCCC2)c1=O	3.12
CO[C@H]1C[C@@H]2CC[C@@H](C)[C@@](O)(O2)C(=O)C(=O)N2CCCC[C@H]2C(=O)O[C@H]([C@H](C)C[C@@H]2CC[C@@H](O)[C@H](OC)C2)CC(=O)[C@H](C)/C=C(\C)[C@@H](O)[C@@H](OC)C(=O)[C@H](C)C[C@H](C)/C=C/C=C/C=C/1C	1.66
CCOc1ccn(-c2ccc(F)cc2)c(=O)c1C(=O)Nc1ccc(Oc2ccnc(N)c2Cl)c(F)c1	1.11

###

Tested on: HCI-001
PROTOCOL DETAILS: CTG-3D luminescence at 96 h relative to day-0 seeding control (ratio to day 0); higher = more growth / less cytotoxicity; PDxO 3D drug screen (set 2), 96 h, CTG-3D normalised to day-0 seeding control.
TEST PARAMETERS: 0.005 µM; days in culture: 365
VALUE TYPE: CTG-3D luminescence at 96 h

MOLECULE	RECORDED RESULT
CC(=O)O[C@@]12CO[C@@H]1C[C@H](O)[C@@]1(C)C(=O)[C@H](O)C3=C(C)[C@@H](OC(=O)[C@H](O)[C@@H](NC(=O)OC(C)(C)C)c4ccccc4)C[C@@](O)([C@@H](OC(=O)c4ccccc4)[C@H]21)C3(C)C [docetaxel]	1.68
C[C@@H](Nc1cc(F)cc(F)c1)c1cc(C(=O)N(C)C)cc2c(=O)cc(N3CCOCC3)oc12 [AZD-8186]	2.38
CC(=O)c1c(C)c2cnc(Nc3ccc(N4CCNCC4)cn3)nc2n(C2CCCC2)c1=O [palbociclib]	2.7
Nc1cc(C(F)(F)F)c(-c2cc(N3CCOCC3)nc(N3CCOCC3)n2)cn1 [buparlisib]	2.5
